Catalogue of pIC50 readings, one per entry.
molecular target: PI3K-γ (Homo sapiens); test: PI3K-gamma fluorescence polarization assay
Sequence (P48736 whole entry, species assumed): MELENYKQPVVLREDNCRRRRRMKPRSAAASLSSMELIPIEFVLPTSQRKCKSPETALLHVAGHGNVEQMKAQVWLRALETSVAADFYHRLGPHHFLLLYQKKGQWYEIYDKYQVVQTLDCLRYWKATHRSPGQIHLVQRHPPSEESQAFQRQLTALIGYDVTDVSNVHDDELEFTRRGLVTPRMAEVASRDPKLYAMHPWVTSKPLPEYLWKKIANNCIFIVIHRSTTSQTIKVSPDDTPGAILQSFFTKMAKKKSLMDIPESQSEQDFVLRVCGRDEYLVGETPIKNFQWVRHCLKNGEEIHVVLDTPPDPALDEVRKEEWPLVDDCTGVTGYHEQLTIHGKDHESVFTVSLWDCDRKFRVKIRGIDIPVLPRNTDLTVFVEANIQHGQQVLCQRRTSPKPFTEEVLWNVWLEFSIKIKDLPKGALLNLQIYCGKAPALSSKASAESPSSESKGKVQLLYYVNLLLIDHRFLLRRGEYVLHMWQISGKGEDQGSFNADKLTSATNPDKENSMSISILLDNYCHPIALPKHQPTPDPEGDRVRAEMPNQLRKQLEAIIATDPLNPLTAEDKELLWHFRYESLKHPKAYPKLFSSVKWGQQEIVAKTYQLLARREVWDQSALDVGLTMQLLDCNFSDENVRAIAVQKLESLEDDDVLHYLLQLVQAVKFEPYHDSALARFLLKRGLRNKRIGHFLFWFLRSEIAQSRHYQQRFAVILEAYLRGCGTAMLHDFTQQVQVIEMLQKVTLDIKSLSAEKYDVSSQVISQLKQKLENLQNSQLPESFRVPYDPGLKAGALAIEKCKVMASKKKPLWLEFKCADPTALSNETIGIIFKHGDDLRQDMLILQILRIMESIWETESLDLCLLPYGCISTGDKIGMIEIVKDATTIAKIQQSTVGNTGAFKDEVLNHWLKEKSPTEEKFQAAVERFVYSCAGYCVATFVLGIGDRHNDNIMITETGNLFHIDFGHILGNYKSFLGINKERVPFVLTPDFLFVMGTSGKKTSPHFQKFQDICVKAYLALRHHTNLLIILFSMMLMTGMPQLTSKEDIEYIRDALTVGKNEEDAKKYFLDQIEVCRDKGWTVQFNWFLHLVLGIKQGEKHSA
pIC50: −log10 of the molar value.
VALUE_KIND: pIC50

>  <CHEMICAL_STRING>
O=C(Nc1ccc(-c2nc(N3CC4CCC(C3)O4)nc(N3CC4CCC(C3)O4)n2)cc1)NC1CC1

>  <STUDY_SYSTEM>
PI3K-γ (Homo sapiens)

>  <RESULT>
< 5.00

$$$$
>  <CHEMICAL_STRING>
C[C@H]1COCCN1c1nc(-c2ccc(NC(=O)Nc3ccncc3)cc2)nc(N2CCOC[C@@H]2C)n1

>  <STUDY_SYSTEM>
PI3K-γ (Homo sapiens)

>  <RESULT>
7.03

$$$$
>  <CHEMICAL_STRING>
COCC(COC)Oc1nc(-c2ccc(NC(=O)NC3CC3)cc2)nc(N2CC3CCC(C2)O3)n1

>  <STUDY_SYSTEM>
PI3K-γ (Homo sapiens)

>  <RESULT>
< 5.00

$$$$
>  <CHEMICAL_STRING>
C[C@@H]1COCCN1c1nc(-c2ccc(NC(=O)Nc3ccc(CN4CCN(C)CC4)cc3)cc2)nc(N2C[C@@H]3C[C@H]2CO3)n1

>  <STUDY_SYSTEM>
PI3K-γ (Homo sapiens)

>  <RESULT>
< 5.00

$$$$
>  <CHEMICAL_STRING>
CC(=O)NC1CCN(c2nc(-c3ccc(NC(=O)Nc4ccc(C(=O)O)cc4)cc3)nc(N3CCOCC3)n2)CC1

>  <STUDY_SYSTEM>
PI3K-γ (Homo sapiens)

>  <RESULT>
≤ 5.00

$$$$
>  <CHEMICAL_STRING>
C[C@@H]1COCCN1c1nc(-c2ccc(NC(=O)Nc3ccc(N4CCN(C5CC5)CC4)cc3)cc2)nc(N2C3CCC2COC3)n1

>  <STUDY_SYSTEM>
PI3K-γ (Homo sapiens)

>  <RESULT>
< 5.00

$$$$
>  <CHEMICAL_STRING>
O=C(Nc1ccc(-c2nc(N3CC4CCC(C3)O4)nc(N3CC4CCC(C3)O4)n2)cc1)OCCO

>  <STUDY_SYSTEM>
PI3K-γ (Homo sapiens)

>  <RESULT>
< 5.00

$$$$

---

Catalogue of log10(IC50) readings, one per entry.
molecular target: UniProt:P42345; experiment: mTOR kinase assay (DELFIA format, purified enzyme); assay type: biochemical; conditions: read-out: IC50 mTOR
VALUE_KIND: log10(IC50) (log10 of the value in nM)

>  <CHEMICAL_STRING>
Cc1nc(-c2ccc(NC(=O)Nc3ccncc3)cc2)nc(N2CCOCC2)n1

>  <log10(IC50)>
1.48

$$$$
>  <CHEMICAL_STRING>
CCCCN1CCN(C(=O)c2ccc(NC(=O)Nc3ccc(-c4nc(N5CCOC[C@H]5C)nc(N5CCOC[C@@H]5C)n4)cc3)cc2)CC1

>  <log10(IC50)>
0.30

$$$$
>  <CHEMICAL_STRING>
CN1CCN(C(=O)c2ccc(NC(=O)Nc3ccc(-c4nc(N5CCOCC5)nc(N5C6CCC5COC6)n4)cc3)cc2)CC1(C)C

>  <log10(IC50)>
2.71

$$$$
>  <CHEMICAL_STRING>
Cc1ccc(NC(=O)Nc2ccc(-c3nc(NC4CNC4)nc(N4CCOCC4)n3)cc2)cc1

>  <log10(IC50)>
1.48

$$$$
>  <CHEMICAL_STRING>
O=C(Nc1ccc(-c2nc(N3CC4CCC(C3)O4)nc(N3C[C@@H]4C[C@H]3CN4)n2)cc1)Nc1cccnc1

>  <log10(IC50)>
1.75

$$$$
>  <CHEMICAL_STRING>
CCCCc1nc(-c2ccc(NC(=O)Nc3ccc(C(=O)Nc4ccc(OCCN(C)C)cc4)cc3)cc2)nc(N2CCOCC2)n1

>  <log10(IC50)>
1.90

$$$$
>  <CHEMICAL_STRING>
CCc1nc(-c2ccc(NC(=O)Nc3cccc(C(=O)N4CCN(c5ccccn5)CC4)c3)cc2)nc(N2CCOCC2)n1

>  <log10(IC50)>
2.00

$$$$
>  <CHEMICAL_STRING>
C[C@H]1COCCN1c1nc(-c2ccc(NC(=O)Nc3ccncc3)cc2)nc(N2CCOC[C@@H]2C)n1

>  <log10(IC50)>
0.48

$$$$
>  <CHEMICAL_STRING>
COCCNc1nc(-c2ccc(NC(=O)Nc3cccnc3)cc2)nc(N2CC3CCC(C2)O3)n1

>  <log10(IC50)>
0.36

$$$$
>  <CHEMICAL_STRING>
O=C(Nc1ccncc1)Nc1ccc(-c2nc(NC3CNC3)nc(N3CCOCC3)n2)cc1

>  <log10(IC50)>
0.68

$$$$
>  <CHEMICAL_STRING>
CC(C)Nc1nc(-c2ccc(NC(=O)Nc3ccc(C(=O)NN(C)C)cc3)cc2)nc(N2CC3CCC(C2)O3)n1

>  <log10(IC50)>
0.41

$$$$
>  <CHEMICAL_STRING>
CCNc1nc(-c2ccc(NC(=O)Nc3cccnc3)cc2)nc(N2CC3CCC(C2)O3)n1

>  <log10(IC50)>
1.20

$$$$
>  <CHEMICAL_STRING>
O=C(Nc1ccncc1)Nc1ccc(-c2nc(-c3cnc4ccccc4c3)nc(N3CCOCC3)n2)cc1

>  <log10(IC50)>
0.93

$$$$
>  <CHEMICAL_STRING>
CCS(=O)(=O)N1CCN(c2nc(-c3ccc(NC(=O)Nc4ccc(C(=O)OC)cc4)cc3)nc(N3CCOCC3)n2)CC1

>  <log10(IC50)>
1.15

$$$$
>  <CHEMICAL_STRING>
FC(F)c1nc2ccccc2n1-c1nc(N2CCOCC2)nc(N2CC3CCC(C2)O3)n1

>  <log10(IC50)>
1.87

$$$$

---

molecular target: Human mTOR (FLAG-TOR) (Homo sapiens); test: mTOR kinase assay (DELFIA format, purified enzyme); assay type: biochemical; details: read-out: IC50 mTOR
Sequence (P42345 1360-2549 limits assumed): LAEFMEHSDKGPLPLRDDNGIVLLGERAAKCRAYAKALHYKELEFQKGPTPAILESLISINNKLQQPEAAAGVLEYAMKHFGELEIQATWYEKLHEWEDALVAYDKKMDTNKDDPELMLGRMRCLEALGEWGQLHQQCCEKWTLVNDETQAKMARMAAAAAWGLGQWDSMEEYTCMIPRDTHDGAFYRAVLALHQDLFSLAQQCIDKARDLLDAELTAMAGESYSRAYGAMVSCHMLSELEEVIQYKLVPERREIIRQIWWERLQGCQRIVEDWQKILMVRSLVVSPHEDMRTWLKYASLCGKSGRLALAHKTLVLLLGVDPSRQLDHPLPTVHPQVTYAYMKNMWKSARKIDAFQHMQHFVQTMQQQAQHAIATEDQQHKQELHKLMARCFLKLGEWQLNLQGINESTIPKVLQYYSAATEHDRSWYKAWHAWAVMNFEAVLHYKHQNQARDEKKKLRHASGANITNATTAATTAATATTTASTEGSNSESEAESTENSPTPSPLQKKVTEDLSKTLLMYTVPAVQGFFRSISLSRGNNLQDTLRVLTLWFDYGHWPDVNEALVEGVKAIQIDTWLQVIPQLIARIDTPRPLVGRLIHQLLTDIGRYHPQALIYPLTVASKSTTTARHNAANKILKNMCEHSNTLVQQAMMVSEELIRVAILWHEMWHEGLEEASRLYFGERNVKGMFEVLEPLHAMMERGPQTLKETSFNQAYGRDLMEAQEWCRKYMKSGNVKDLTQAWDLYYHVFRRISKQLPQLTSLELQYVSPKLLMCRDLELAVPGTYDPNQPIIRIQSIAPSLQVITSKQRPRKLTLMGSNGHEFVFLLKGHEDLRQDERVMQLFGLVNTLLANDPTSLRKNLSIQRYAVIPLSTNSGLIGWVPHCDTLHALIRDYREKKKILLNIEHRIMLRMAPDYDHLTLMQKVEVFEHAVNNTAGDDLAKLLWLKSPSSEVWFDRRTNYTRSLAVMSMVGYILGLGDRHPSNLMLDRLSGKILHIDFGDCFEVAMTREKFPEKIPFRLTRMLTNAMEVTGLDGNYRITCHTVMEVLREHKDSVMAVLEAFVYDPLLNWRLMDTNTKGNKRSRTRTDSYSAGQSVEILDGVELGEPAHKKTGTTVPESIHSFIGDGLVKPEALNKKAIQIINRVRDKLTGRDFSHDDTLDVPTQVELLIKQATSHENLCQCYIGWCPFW
Catalogue of IC50 readings, one per entry.

>  <CHEMICAL_STRING>
C[C@H]1COCCN1c1nc(-c2ccc(NC(=O)Nc3ccc(C(=O)NCCCN(C)C)cc3)cc2)nc(N2CCOCC2)n1

>  <IC50 / nM>
1

$$$$
>  <CHEMICAL_STRING>
CN(C)C1CCN(C(=O)c2ccc(NC(=O)Nc3ccc(-c4nc(N5CCOCC5)nc(N5C6CCCC5COC6)n4)cc3)cc2)CC1

>  <IC50 / nM>
0.63

$$$$
>  <CHEMICAL_STRING>
CCCCc1nc(-c2ccc(NC(=O)Nc3ccc(C(=O)N4CCC(N(C)C)CC4)cc3)cc2)nc(N2CCOCC2)n1

>  <IC50 / nM>
9

$$$$
>  <CHEMICAL_STRING>
CCCCc1nc(-c2ccc(NC(=O)Nc3ccc(C(=O)N(C)CCN(C)C)cc3)cc2)nc(N2CCOCC2)n1

>  <IC50 / nM>
2

$$$$
>  <CHEMICAL_STRING>
O=C(Nc1ccncc1)Nc1ccc(-c2nc(N3CCCC3)nc(N3CCOCC3)n2)cc1

>  <IC50 / nM>
8

$$$$
>  <CHEMICAL_STRING>
COC(=O)N1CCN(c2nc(-c3ccc(NC(=O)Nc4ccncc4)cc3)nc(N3CC4CCC(C3)O4)n2)CC1

>  <IC50 / nM>
3.15

$$$$
>  <CHEMICAL_STRING>
NCCCCOc1nc(-c2ccc(NC(=O)Nc3cccnc3)cc2)nc(N2CC3CCC(C2)O3)n1

>  <IC50 / nM>
11

$$$$

---

Catalogue of log10 of IC50 readings, one per entry.
target: PI3K-α (Homo sapiens, UniProt P42336); test: PI3K-alpha fluorescence polarization assay; settings: read-out: IC50 PI3Kα
Sequence (P42336 whole entry, species assumed): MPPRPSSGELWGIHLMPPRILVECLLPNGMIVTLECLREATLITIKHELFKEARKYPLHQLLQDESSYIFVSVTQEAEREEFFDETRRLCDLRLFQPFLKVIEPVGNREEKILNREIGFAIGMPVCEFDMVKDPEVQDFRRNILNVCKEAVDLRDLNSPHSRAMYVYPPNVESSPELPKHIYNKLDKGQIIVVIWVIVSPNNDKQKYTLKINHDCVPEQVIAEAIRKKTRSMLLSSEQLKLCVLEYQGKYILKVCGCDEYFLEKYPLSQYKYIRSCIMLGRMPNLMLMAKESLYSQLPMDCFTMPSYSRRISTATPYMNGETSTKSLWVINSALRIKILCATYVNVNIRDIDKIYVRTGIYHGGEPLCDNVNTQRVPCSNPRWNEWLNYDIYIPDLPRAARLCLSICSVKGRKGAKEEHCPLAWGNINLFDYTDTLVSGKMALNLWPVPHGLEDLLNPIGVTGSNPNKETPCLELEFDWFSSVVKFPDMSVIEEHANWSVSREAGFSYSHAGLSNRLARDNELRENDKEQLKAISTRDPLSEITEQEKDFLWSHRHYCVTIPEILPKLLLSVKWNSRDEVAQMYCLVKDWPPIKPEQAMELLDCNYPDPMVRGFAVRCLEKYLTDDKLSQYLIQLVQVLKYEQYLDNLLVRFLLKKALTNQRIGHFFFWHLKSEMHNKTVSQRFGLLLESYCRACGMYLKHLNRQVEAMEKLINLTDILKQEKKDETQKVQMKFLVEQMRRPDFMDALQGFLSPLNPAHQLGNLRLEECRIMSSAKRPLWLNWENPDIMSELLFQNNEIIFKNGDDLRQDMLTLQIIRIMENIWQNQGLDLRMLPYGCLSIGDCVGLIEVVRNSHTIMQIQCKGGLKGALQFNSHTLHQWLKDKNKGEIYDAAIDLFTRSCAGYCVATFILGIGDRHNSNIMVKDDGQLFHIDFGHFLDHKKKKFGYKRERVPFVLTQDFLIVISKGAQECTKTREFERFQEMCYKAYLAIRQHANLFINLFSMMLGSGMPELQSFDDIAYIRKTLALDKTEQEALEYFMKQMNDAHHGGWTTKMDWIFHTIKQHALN
Sequence (P27986 whole entry partner, species assumed): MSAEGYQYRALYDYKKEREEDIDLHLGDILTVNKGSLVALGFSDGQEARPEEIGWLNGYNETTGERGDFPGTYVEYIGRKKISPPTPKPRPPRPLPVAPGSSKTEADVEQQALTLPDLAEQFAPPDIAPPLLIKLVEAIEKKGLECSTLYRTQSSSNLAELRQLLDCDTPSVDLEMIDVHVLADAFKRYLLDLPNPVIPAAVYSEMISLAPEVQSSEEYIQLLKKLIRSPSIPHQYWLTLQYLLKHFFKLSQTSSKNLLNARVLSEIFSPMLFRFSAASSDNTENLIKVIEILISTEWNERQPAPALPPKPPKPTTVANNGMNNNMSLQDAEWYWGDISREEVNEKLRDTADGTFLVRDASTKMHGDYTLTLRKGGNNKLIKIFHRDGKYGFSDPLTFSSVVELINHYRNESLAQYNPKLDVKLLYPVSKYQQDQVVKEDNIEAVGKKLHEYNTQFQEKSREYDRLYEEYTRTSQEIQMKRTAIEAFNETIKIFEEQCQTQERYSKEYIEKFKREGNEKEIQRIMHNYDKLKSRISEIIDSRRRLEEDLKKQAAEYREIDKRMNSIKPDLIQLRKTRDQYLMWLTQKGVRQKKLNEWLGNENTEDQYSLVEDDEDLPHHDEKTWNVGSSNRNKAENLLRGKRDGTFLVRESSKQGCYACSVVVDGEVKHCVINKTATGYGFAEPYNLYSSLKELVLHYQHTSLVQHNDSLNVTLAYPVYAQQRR
VALUE_KIND: log10 of IC50 (log10 of the value in nM)

>  <MOLECULE>
CCc1nc(-c2ccc(NC(=O)Nc3cccc(C(=O)N4CCN(c5ccccn5)CC4)c3)cc2)nc(N2CCOCC2)n1

>  <VALUE_KIND>
log10 of IC50

>  <QUANTITATIVE_RESULT>
2.54

$$$$
>  <MOLECULE>
C[C@H]1COCCN1c1nc(-c2ccc(NC(=O)Nc3ccc(C(=O)N(C)CCN(C)C)cc3)cc2)nc(N2CCOC[C@@H]2C)n1

>  <VALUE_KIND>
log10 of IC50

>  <QUANTITATIVE_RESULT>
-0.22

$$$$
>  <MOLECULE>
COCCNC(=O)c1ccc(NC(=O)Nc2ccc(-c3nc(N4CCCCC4)nc(N4CCOCC4)n3)cc2)cc1

>  <VALUE_KIND>
log10 of IC50

>  <QUANTITATIVE_RESULT>
1.27

$$$$
>  <MOLECULE>
O=C(Nc1ccncc1)Nc1ccc(-c2nc(N3CCC(O)CC3)nc(N3CC4CCC(C3)O4)n2)cc1

>  <VALUE_KIND>
log10 of IC50

>  <QUANTITATIVE_RESULT>
3.24

$$$$
>  <MOLECULE>
O=C(Nc1ccncc1)Nc1ccc(-c2nc(C3CCOCC3)nc(N3CCOCC3)n2)cc1

>  <VALUE_KIND>
log10 of IC50

>  <QUANTITATIVE_RESULT>
0.78

$$$$
>  <MOLECULE>
O=C(Nc1ccncc1)Nc1ccc(-c2nc(N3CCOCC3)nc(N3C4COCC(O)C3C4)n2)cc1 (stereo not shown)

>  <VALUE_KIND>
log10 of IC50

>  <QUANTITATIVE_RESULT>
1.11

$$$$
>  <MOLECULE>
CC(C)Nc1nc(-c2ccc(NC(=O)Nc3ccc(CN)cc3)cc2)nc(N2C3CCC2COC3)n1

>  <VALUE_KIND>
log10 of IC50

>  <QUANTITATIVE_RESULT>
2.72

$$$$
